Entry source: patent US12116343B2

Reported IC50 by item:
- Measurement Target: APOL1 G1 Protein (Homo sapiens, UniProt O14791, I384M/S342G)
- Experiment Summary: Trypanosoma brucei brucei lysis assay using APOL1 recombinant protein (AlamarBlue viability)
- Format: cell-based
- Experimental Conditions: Trypanosoma brucei brucei lysis, recombinant APOL1, AlamarBlue; read-out: Trypanosoma Assay (IC50)

Example compounds with recorded IC50:
CCN(C(=O)[C@H]1C[C@H](c2c(-c3ccc(F)cc3)[nH]c3c(F)cc(F)cc32)C1)C(C)CO (mixture of isomers)    250 to 1000 nM
O=C([C@H]1C[C@H](c2c(-c3ccc(F)cc3)[nH]c3c(F)cc(F)cc32)C1)N1C2CCC(C2)C1CO (stereo partly shown)    > 1000 nM

*Q* What measured IC50 is associated with O=C([C@H]1C[C@H](c2c(-c3ccc(F)cc3)[nH]c3c(F)cc(F)cc32)C1)N1CCN(CCO)CC1 on APOL1 G1 Protein (Homo sapiens, UniProt O14791, I384M/S342G)?
*A* > 1000 nM

*Q* Input Cn1ncc(CNC(=O)[C@H]2C[C@H](c3c(-c4ccc(F)cc4)[nH]c4c(F)cc(F)cc43)C2)n1
*A* < 250 nM

*Q* Input CC(C)(O)C1CN(C(=O)[C@H]2C[C@H](c3c(-c4ccc(F)cc4)[nH]c4c(F)cc(F)cc43)C2)C1
*A* > 1000 nM

*Q* Input O=C([C@H]1C[C@H](c2c(-c3ccc(F)cc3)[nH]c3c(F)cc(F)cc32)C1)N1CC[C@@H]1CO
*A* < 250 nM

*Q* Input NC(=O)[C@H]1C[C@H](c2c(-c3ccc(F)cc3)[nH]c3c(F)cc(F)cc32)C1
*A* < 250 nM

====

- Measurement Target: G1 APOL1 (Homo sapiens, UniProt O14791, I384M/S342G)
- Construct: expressed in transfected cells
- Sequence (O14791 28-398 S342G/I384M): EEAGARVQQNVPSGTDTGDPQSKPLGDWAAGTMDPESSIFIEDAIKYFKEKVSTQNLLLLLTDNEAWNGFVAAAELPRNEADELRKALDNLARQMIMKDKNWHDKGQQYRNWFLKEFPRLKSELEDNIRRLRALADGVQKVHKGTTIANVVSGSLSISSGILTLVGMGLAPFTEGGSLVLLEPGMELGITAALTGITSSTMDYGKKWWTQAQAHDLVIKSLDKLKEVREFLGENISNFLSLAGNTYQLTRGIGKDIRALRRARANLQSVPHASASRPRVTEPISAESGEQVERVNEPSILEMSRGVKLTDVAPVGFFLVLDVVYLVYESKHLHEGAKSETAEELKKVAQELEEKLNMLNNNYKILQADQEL
- Experiment Summary: Acute APOL1 Thallium Assay with inducible stable clones of HEK 293 cells
- Type: cell-based
- Experimental Conditions: HEK 293 T-Rex cells expressing G1 APOL1; read-out: Thallium Assay (IC50)
pIC50: −log10 of the molar value.
Quantity Measured: pIC50

*Q* What value of measured pIC50 is listed for CC[C@@H](CO)NC(=O)[C@H]1C[C@@H](c2c(-c3ccc(F)cc3)[nH]c3c(F)cc(F)cc32)C1 ?
*A* < 6.00

*Q* Input O=C(NCC1CC(F)(F)C1)[C@H]1C[C@H](c2c(-c3ccc(F)cc3)[nH]c3c(F)cc(F)cc32)C1
*A* < 6.00

*Q* Input O=C(N[C@H]1COC[C@@H]1O)[C@H]1C[C@H](c2c(-c3ccc(F)cc3)[nH]c3c(F)cc(F)cc32)C1
*A* 6.00 to 6.60

*Q* Input O=C(NC1(CO)CCOC1)[C@H]1C[C@H](c2c(-c3ccc(F)cc3)[nH]c3c(F)cc(F)cc32)C1 (some centres unmarked)
*A* > 6.60

*Q* Input O=C(NC1(CO)CC1)[C@H]1C[C@H](c2c(-c3ccc(F)cc3)[nH]c3c(F)cc(F)cc32)C1
*A* 6.00 to 6.60
